Data provenance is patent US12187684B2.

# assay target: RORγ LBD-GST tagged (Homo sapiens, UniProt P51449)
# Construct: RORγ LBD-GST tagged (Cat No. RORC-114H, Creative Biomart); purchased Creative Biomart RORC-114H
# Sequence (P51449 269-508 limits assumed): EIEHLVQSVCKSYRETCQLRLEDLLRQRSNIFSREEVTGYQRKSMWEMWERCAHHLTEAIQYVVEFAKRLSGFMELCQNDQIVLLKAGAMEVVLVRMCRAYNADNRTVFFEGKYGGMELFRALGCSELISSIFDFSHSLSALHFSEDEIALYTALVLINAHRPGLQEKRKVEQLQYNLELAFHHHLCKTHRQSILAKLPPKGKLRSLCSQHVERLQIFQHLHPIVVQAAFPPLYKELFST
# measurement description: LanthaScreen TR-FRET RORγ coactivator assay
# Type: biochemical
# measurement context: Fluorescein-D22 coactivator peptide, 1 hour room temperature
Output schema: class label derived from IC50. Mapping: 0 = under 0.02 µM, 1 = from 0.02 µM up to 0.08 µM, 2 = 0.08 µM and over

Here are 10 compounds together with their reported answers.
Query :: Category of O=S(=O)(CC1CC1)c1ccc(C(CO)c2nc3c(Cl)c(-c4ccccc4OC(F)(F)F)c(Cl)cc3[nH]2)cc1 (stereo not drawn) :
Result :: 0

Query :: # bin lookup: classify CC(=O)NCCC(c1ccc(S(=O)(=O)CC2CC2)cc1)c1nc2cc(-c3ccccc3OC(F)F)c(Cl)cc2[nH]1 (single isomer, unassigned) [166 or 167 made from Int-164B] by its IC50
Result :: 1

Query :: Which class holds CCS(=O)(=O)c1ccc(Cc2nc3c(Cl)c(-c4ccccc4CCC(F)(F)F)c(Cl)cc3[nH]2)cc1 ?
Result :: 0

Query :: Just checking, what class would you give NCC(c1ccc(S(=O)(=O)CC2CC2)cc1)c1nc2ccc(-c3ccccc3OC(F)F)c(Cl)c2[nH]1 (stereo not drawn) here?
Result :: 0

Query :: Lab note: which band did CS(=O)(=O)c1ccc(C(CO)c2nc3c(Cl)c(-c4ccccc4OC(F)(F)F)c(Cl)cc3[nH]2)c(Cl)c1 (stereo not drawn) land in?
Result :: 1

Query :: Quick check: band for CCS(=O)(=O)c1ccc(C(O)c2nc3c(F)c(-c4ccccc4OC(F)(F)F)c(F)cc3[nH]2)cc1 (stereo not drawn)
Result :: 2

Query :: Categorize the following entry: CCS(=O)(=O)c1ccc(C(N)c2nc3c(Cl)c(-c4ccccc4OC(F)F)c(Cl)cc3[nH]2)cc1 (stereo not drawn)
Result :: 0

Query :: Textbook exercise: identify the category of the compound given here, CCS(=O)(=O)c1ccc(C(CO)c2nc3c(F)c(-c4ccccc4OC(F)(F)F)c(F)cc3[nH]2)cc1 (stereo not drawn) , according to its measured value.
Result :: 2

Query :: Any idea which band CCS(=O)(=O)c1ccc(C(CCO)c2nc3c(Cl)c(N4CCC(F)(F)CC4)c(Cl)cc3[nH]2)cc1 (single isomer, unassigned) is in?
Result :: 2

Query :: Classify this compound: CCS(=O)(=O)c1ccc(C(O)c2nc3c(Cl)c(-c4ccccc4OCCOC)c(Cl)cc3[nH]2)cc1 (stereo not drawn)
Result :: 2

New cases:
Query :: For this compound, which bin applies? CCS(=O)(=O)c1ccc(C(O)c2nc3c(Cl)c(-c4ccccc4OCC(F)(F)F)c(Cl)cc3[nH]2)cc1 (stereo not drawn)
Result :: 1

Query :: Which IC50 band matches CC(C)S(=O)(=O)c1ccc(C(CO)c2nc3c(Cl)c(-c4ccccc4C(F)(F)F)c(Cl)cc3[nH]2)cc1 (stereo not drawn) ?
Result :: 1

Query :: Please let me know in which category the item O=S(=O)(CC1CC1)c1ccc(Cc2nc3c(Cl)c(-c4ccccc4OC(F)F)c(Cl)cc3[nH]2)cc1 belongs.
Result :: 0

Query :: Class? Entry: CCOc1ccccc1-c1c(Cl)cc2[nH]c(Cc3ccc(S(=O)(=O)CC)cc3)nc2c1Cl
Result :: 2

Query :: Category of CCS(=O)(=O)c1ccc(C(O)c2nc3c(Cl)c(-c4ccccc4OC(F)F)c(Cl)cc3[nH]2)c(F)c1 (stereo not drawn) :
Result :: 2
